FYI, the data here is from the supplement of paper PMC10307832.

# Tested on: LCLC-97TM1
# assay-procedure: relative viability (nuclei count vs DMSO), 5 days (fraction); higher = more cells survive
# assay-conditions: first compound 0.006325 µM
Recorded relative viability values for a group of compounds are listed next.
I'd appreciate a reply containing only the number, no unit.

IN: Quick one: give measured relative viability for CC(=O)O[C@@]12CO[C@@H]1C[C@H](O)[C@@]1(C)C(=O)[C@H](O)C3=C(C)[C@@H](OC(=O)[C@H](O)[C@@H](NC(=O)OC(C)(C)C)c4ccccc4)C[C@@](O)([C@@H](OC(=O)c4ccccc4)[C@H]21)C3(C)C [Docetaxel] + Cc1cc(Nc2cc(N3CCN(C)CC3)nc(Sc3ccc(NC(=O)C4CC4)cc3)n2)n[nH]1 [Tozasertib] (partner 0.1 µM)
OUT: 0.122

IN: Assign relative viability to the following record: CC(=O)O[C@@]12CO[C@@H]1C[C@H](O)[C@@]1(C)C(=O)[C@H](O)C3=C(C)[C@@H](OC(=O)[C@H](O)[C@@H](NC(=O)OC(C)(C)C)c4ccccc4)C[C@@](O)([C@@H](OC(=O)c4ccccc4)[C@H]21)C3(C)C [Docetaxel] + C[C@@H](Oc1cc(-c2cnn(C3CCNCC3)c2)cnc1N)c1c(Cl)ccc(F)c1Cl [Crizotinib] (partner 1 µM)
OUT: 0.139

IN: Tell me relative viability reported for CC(=O)O[C@@]12CO[C@@H]1C[C@H](O)[C@@]1(C)C(=O)[C@H](O)C3=C(C)[C@@H](OC(=O)[C@H](O)[C@@H](NC(=O)OC(C)(C)C)c4ccccc4)C[C@@](O)([C@@H](OC(=O)c4ccccc4)[C@H]21)C3(C)C [Docetaxel] + Cc1nc(NC(=O)N2CCC[C@H]2C(N)=O)sc1-c1ccnc(C(C)(C)C(F)(F)F)c1 [Alpelisib] (partner 2 µM)
OUT: 0.154

* * *

# System: SW 900
# assay-procedure: relative viability (nuclei count vs DMSO), 5 days (fraction); higher = more cells survive
# assay-conditions: first compound 0.8 µM
measurement-label: relative viability
Please reply with the number alone, leaving off any unit.

The examples below pair each entry with its known result.
IN: Give the reported value of relative viability for this record: Cc1cnc(-c2cnc(NCCNc3ccc(C#N)cn3)nc2-c2ccc(Cl)cc2Cl)[nH]1 + CC(=O)c1c(C)c2cnc(Nc3ccc(N4CCNCC4)cn3)nc2n(C2CCCC2)c1=O [Palbociclib] (partner 0.5 µM)
OUT: 0.528

IN: Give the reported relative viability for this compound. O=c1[nH]c2ccccc2n1C1CCN(CCCC(c2ccc(F)cc2)c2ccc(F)cc2)CC1 [Pimozide] + Cc1nc(Nc2ncc(C(=O)Nc3c(C)cccc3Cl)s2)cc(N2CCN(CCO)CC2)n1 [Dasatinib] (partner 0.075 µM)
OUT: 0.37

IN: Provide one value: measured relative viability of O=c1[nH]c2ccccc2n1C1CCN(CCCC(c2ccc(F)cc2)c2ccc(F)cc2)CC1 [Pimozide] + COc1cccc2cc(-c3nc([C@H]4CC[C@H](C(=O)O)CC4)n4ncnc(N)c34)[nH]c12 [OSI-027] (partner 0.5 µM)
OUT: 0.273

IN: Fill in relative viability for record Cc1cnc(-c2cnc(NCCNc3ccc(C#N)cn3)nc2-c2ccc(Cl)cc2Cl)[nH]1 + Nc1nc2[nH]cc(CCc3ccc(C(=O)N[C@@H](CCC(=O)O)C(=O)O)cc3)c2c(=O)[nH]1 [Pemetrexed] (partner 0.2 µM)
OUT: 0.478

Further cases:
IN: Read the entry O=c1[nH]c2ccccc2n1C1CCN(CCCC(c2ccc(F)cc2)c2ccc(F)cc2)CC1 [Pimozide] + Cc1cc(Nc2cc(N3CCN(C)CC3)nc(Sc3ccc(NC(=O)C4CC4)cc3)n2)n[nH]1 [Tozasertib] (partner 0.1 µM) and write its reported relative viability.
OUT: 0.54

IN: Supply reported relative viability belonging to this compound: O=c1[nH]c2ccccc2n1C1CCN(CCCC(c2ccc(F)cc2)c2ccc(F)cc2)CC1 [Pimozide] + COc1cc2c(Oc3ccc(NC(=O)C4(C(=O)Nc5ccc(F)cc5)CC4)cc3F)ccnc2cc1OCCCN1CCOCC1 [Foretinib] (partner 0.25 µM)
OUT: 0.668

* * *

# System: HARA
# assay-procedure: relative viability (nuclei count vs DMSO), 5 days (fraction); higher = more cells survive
# assay-conditions: first compound 0.5 µM
Note that class boundaries on relative viability are group A: < 0.1; group B: ≥ 0.1 and < 0.7; group C: ≥ 0.7

IN: Sort into band: COc1cc2nccc(Oc3ccc(NC(=O)Nc4cc(C)on4)c(Cl)c3)c2cc1OC [Tivozanib] + O=C(c1cc(Cc2n[nH]c(=O)c3ccccc23)ccc1F)N1CCN(C(=O)C2CC2)CC1 [Olaparib] (partner 8 µM)
OUT: group C

New cases:
IN: Class (by measured relative viability) for Nc1ccn([C@@H]2O[C@H](CO)[C@@H](O)[C@@H]2O)c(=O)n1 [Cytarabine] + CC1(C)CCC(c2ccc(Cl)cc2)=C(CN2CCN(c3ccc(C(=O)NS(=O)(=O)c4ccc(N[C@H](CCN5CCOCC5)CSc5ccccc5)c(S(=O)(=O)C(F)(F)F)c4)cc3)CC2)C1 [Navitoclax] (partner 0.5 µM)
OUT: group B

IN: Hi, small favor: classify COc1cc2nccc(Oc3ccc(NC(=O)Nc4cc(C)on4)c(Cl)c3)c2cc1OC [Tivozanib] + COc1cccc2cc(-c3nc([C@H]4CC[C@H](C(=O)O)CC4)n4ncnc(N)c34)[nH]c12 [OSI-027] (partner 0.5 µM) by its relative viability when you get a moment.
OUT: group B

IN: Which relative viability category applies to COc1cc2nccc(Oc3ccc(NC(=O)Nc4cc(C)on4)c(Cl)c3)c2cc1OC [Tivozanib] + N=C(N)NC(=N)NCCc1ccccc1 [Phenformin] (partner 250 µM) here?
OUT: group B

* * *

Listing of recorded relative viability by entry.
# Tested on: LC-2-ad
# assay-procedure: relative viability (nuclei count vs DMSO), 5 days (fraction); higher = more cells survive
# assay-conditions: first compound 0.000632 µM
Write the number on its own, no unit after it.

IN: For the compound CC(=O)O[C@@]12CO[C@@H]1C[C@H](O)[C@@]1(C)C(=O)[C@H](O)C3=C(C)[C@@H](OC(=O)[C@H](O)[C@@H](NC(=O)OC(C)(C)C)c4ccccc4)C[C@@](O)([C@@H](OC(=O)c4ccccc4)[C@H]21)C3(C)C [Docetaxel] + C[C@]1(O)C[C@@H](c2nc(-c3ccc4ccc(-c5ccccc5)nc4c3)c3c(N)nccn32)C1 [Linsitinib] (partner 1 µM) , give its reported relative viability.
OUT: 0.223

Others:
IN: Output relative viability of CC(=O)O[C@@]12CO[C@@H]1C[C@H](O)[C@@]1(C)C(=O)[C@H](O)C3=C(C)[C@@H](OC(=O)[C@H](O)[C@@H](NC(=O)OC(C)(C)C)c4ccccc4)C[C@@](O)([C@@H](OC(=O)c4ccccc4)[C@H]21)C3(C)C [Docetaxel] + Cc1cc(Nc2cc(N3CCN(C)CC3)nc(Sc3ccc(NC(=O)C4CC4)cc3)n2)n[nH]1 [Tozasertib] (partner 0.1 µM)
OUT: 0.395

* * *

# Tested on: IA-LM
# assay-procedure: relative viability (nuclei count vs DMSO), 5 days (fraction); higher = more cells survive
# assay-conditions: first compound 5 µM
measurement-label: relative viability
Please give the numeric answer without any surrounding text.

IN: For the compound O=C(O)CCCCC(CCSCc1ccccc1)SCc1ccccc1 (centres undefined) [CPI-613] + O=C(CCCCCCC(=O)Nc1ccccc1)NO [Vorinostat] (partner 1 µM) , give its measured relative viability value.
OUT: 0.876

IN: Tell me measured relative viability for O=C(O)CCCCC(CCSCc1ccccc1)SCc1ccccc1 (centres undefined) [CPI-613] + CC(C)C[C@H](NC(=O)[C@H](Cc1ccccc1)NC(=O)c1cnccn1)B(O)O [Bortezomib] (partner 0.002 µM) please.
OUT: 0.729

IN: Given O=C(O)CCCCC(CCSCc1ccccc1)SCc1ccccc1 (centres undefined) [CPI-613] + COc1cc2c(Oc3ccc(NC(=O)C4(C(=O)Nc5ccc(F)cc5)CC4)cc3F)ccnc2cc1OCCCN1CCOCC1 [Foretinib] (partner 0.25 µM) , respond with its relative viability.
OUT: 1.12

We next turn to a different compound, shown below.
IN: Find the measured relative viability of O=C(O)CCCCC(CCSCc1ccccc1)SCc1ccccc1 (centres undefined) [CPI-613] + C[C@@H](Oc1cc(-c2cnn(C3CCNCC3)c2)cnc1N)c1c(Cl)ccc(F)c1Cl [Crizotinib] (partner 1 µM) and report it.
OUT: 0.584

* * *

# System: SK-LU-1
# assay-procedure: relative viability (nuclei count vs DMSO), 5 days (fraction); higher = more cells survive
# assay-conditions: first compound 0.0002 µM
Measured relative viability by item
Output spec: single numeric token, no unit.

IN: State, in one line, measured relative viability of CC(=O)O[C@@]12CO[C@@H]1C[C@H](O)[C@@]1(C)C(=O)[C@H](O)C3=C(C)[C@@H](OC(=O)[C@H](O)[C@@H](NC(=O)OC(C)(C)C)c4ccccc4)C[C@@](O)([C@@H](OC(=O)c4ccccc4)[C@H]21)C3(C)C [Docetaxel] + O=C(c1cc(Cc2n[nH]c(=O)c3ccccc23)ccc1F)N1CCN(C(=O)C2CC2)CC1 [Olaparib] (partner 8 µM)
OUT: 0.479

***
IN: Look up and report measured relative viability for this entry: CC(=O)O[C@@]12CO[C@@H]1C[C@H](O)[C@@]1(C)C(=O)[C@H](O)C3=C(C)[C@@H](OC(=O)[C@H](O)[C@@H](NC(=O)OC(C)(C)C)c4ccccc4)C[C@@](O)([C@@H](OC(=O)c4ccccc4)[C@H]21)C3(C)C [Docetaxel] + COc1cc2c(Oc3ccc(NC(=O)C4(C(=O)Nc5ccc(F)cc5)CC4)cc3F)ccnc2cc1OCCCN1CCOCC1 [Foretinib] (partner 0.25 µM)
OUT: 0.737
